- Tested on: OVCAR-5 ovarian
- assay_remarks: NCI tumour cell line growth inhibition, 48 h

# compound, study_target, TGI
rows = [
    ("Cc1nc2ccncc2[nH]1", "OVCAR-5 ovarian", "> 100 µM"),
    ("C=C1C(=O)O[C@@H]2C[C@@]3(C)[C@H](O)CCC(=C)[C@@H]3C[C@H]12", "OVCAR-5 ovarian", "20.5 µM"),
    ("CC(=O)C1(C(=O)C(=[N+]=[N-])S(=O)(=O)c2ccccc2)CC1", "OVCAR-5 ovarian", "> 100 µM"),
    ("O=c1c2[nH]cnc2n(-c2ccccc2)c(=S)n1-c1ccccc1", "OVCAR-5 ovarian", "> 100 µM"),
    ("Cc1ccccc1Nc1cc(O)c2c(=O)cc(-c3ccccc3)oc2c1", "OVCAR-5 ovarian", "> 100 µM"),
    ("C/C(CCN(C)C)=N/O", "OVCAR-5 ovarian", "32.9 µM"),
    ("Cc1cc(-c2ccc(N=Nc3ccc4c(S(=O)(=O)O)cc(S(=O)(=O)O)c(N)c4c3O)c(C)c2)ccc1N=Nc1ccc2c(S(=O)(=O)O)cc(S(=O)(=O)O)c(N)c2c1O", "OVCAR-5 ovarian", "> 100 µM"),
    ("COc1cccc(/C=N/[N-]C(N)=O)c1[O-].[Cu+2].[OH3+]", "OVCAR-5 ovarian", "32.6 µM"),
    ("CCN1C(=O)N(CC)C2C1NC(=S)N2/N=C/C=C/c1ccccc1 (centres undefined)", "OVCAR-5 ovarian", "> 100 µM"),
    ("O=C(Nc1ccccc1C(=O)NC(=O)c1ccccc1NC(=O)c1ccccc1)c1ccccc1", "OVCAR-5 ovarian", "13.5 µM"),
    ("CC(=O)Oc1cc2c(cc1OCC(F)(F)F)[C@H]1CC[C@]3(C)[C@@H](OC(C)=O)CC[C@H]3[C@@H]1CC2=O", "OVCAR-5 ovarian", "44.5 µM"),
    ("O=C1C=CC2(O)OCC3C=C4O[C@@H]5OC6(CCCCC6)O[C@@H]5C4[C@@H]2[C@@H]13 (some centres undefined)", "OVCAR-5 ovarian", "> 100 µM"),
    ("COc1ccc(/C(C=O)=C(\\Cl)c2ccc(OC)c(OC)c2)cc1", "OVCAR-5 ovarian", "> 100 µM"),
    ("CNC(=O)OCc1nc(SSc2nc(COC(=O)NC)c(COC(=O)NC)n2C)n(C)c1COC(=O)NC", "OVCAR-5 ovarian", "> 100 µM"),
]
